What pKi was measured for each of the following?
# system: FAP (Homo sapiens)
# Sequence (Q12884 38-760): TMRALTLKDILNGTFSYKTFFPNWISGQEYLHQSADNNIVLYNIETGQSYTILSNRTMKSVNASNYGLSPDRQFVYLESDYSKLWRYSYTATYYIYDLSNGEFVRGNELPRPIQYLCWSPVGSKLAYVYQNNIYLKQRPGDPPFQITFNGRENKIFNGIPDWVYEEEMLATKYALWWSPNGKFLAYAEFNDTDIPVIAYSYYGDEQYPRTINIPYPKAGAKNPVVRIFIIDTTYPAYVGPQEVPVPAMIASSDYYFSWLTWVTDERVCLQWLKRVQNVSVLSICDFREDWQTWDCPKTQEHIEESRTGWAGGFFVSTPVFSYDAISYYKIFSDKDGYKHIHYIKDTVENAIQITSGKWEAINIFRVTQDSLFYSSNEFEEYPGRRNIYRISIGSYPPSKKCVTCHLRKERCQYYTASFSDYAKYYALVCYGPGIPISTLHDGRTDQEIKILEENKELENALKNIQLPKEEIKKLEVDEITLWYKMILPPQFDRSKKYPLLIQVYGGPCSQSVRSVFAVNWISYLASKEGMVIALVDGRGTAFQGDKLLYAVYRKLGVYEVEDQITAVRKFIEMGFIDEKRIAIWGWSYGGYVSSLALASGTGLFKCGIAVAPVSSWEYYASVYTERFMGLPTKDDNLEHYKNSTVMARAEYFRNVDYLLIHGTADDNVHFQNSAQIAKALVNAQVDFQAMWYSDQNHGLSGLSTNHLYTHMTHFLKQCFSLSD
# experimental_details: Inhibition of FAP activity against Ala-Pro-AFC by P2-Pro-AMCC compounds
# Format: biochemical
# Set-up: FAP (amino acids 38-760); FLAG (N); made in house; host or cells: 293 cells (secreted, purified from serum-free conditioned media)
To interpret pKi, take it as minus log10 of a concentration measured in moles per litre.

Enquiry: pKi lookup needed for NCCC(=O)O , thanks.
Return: 6.47

Enquiry: pKi lookup needed for CC(=O)NC(C)C(=O)N1CCCC1C(=O)Nc1ccc2c(C)c(CC(N)=O)c(=O)oc2c1 (stereo not drawn) , thanks.
Return: 6.00

Enquiry: pKi lookup needed for CC(=O)NC(CO)C(=O)N1CCCC1C(=O)Nc1ccc2c(C)c(CC(N)=O)c(=O)oc2c1 (stereo not drawn) , thanks.
Return: 6.70

---

# system: UniProtKB Q12884
# experimental_details: Hydrolysis of C-terminal coumarin dipeptide substrates by FAP (kinetic constants)
# Format: biochemical
# Set-up: FAP (amino acids 38-760); FLAG (N); made in house; host or cells: 293 cells (secreted, purified from serum-free conditioned media)
# test_settings: FAP; substrates with unblocked N-termini; 23° C. in 50 mM Tris-HCl, 100 mM NaCl, 1 mM EDTA, pH 7.4; NC = no cleavage up to 1 mM substrate
Residues, ends and D or L forms follow the SMILES beside them. *: point of attachment. AFC = O=c1cc(C(F)(F)F)c2ccc(N*)cc2o1; AMC = Cc1cc(=O)oc2cc(N*)ccc12
reported_metric: Km (µM)
Supply the numeric figure in µM, leaving out any unit text.

Enquiry: Hello, I am looking for reported Km with UniProtKB Q12884 for C[C@H](N)C(=O)N1CCC[C@H]1C(=O)Nc1ccc2c(C(F)(F)F)cc(=O)oc2c1 [Ala-Pro-AFC 9] (H-Ala-Pro-{AFC}) . Could you help?
Return: 244

Enquiry: Hello, I am looking for reported Km with UniProtKB Q12884 for Cc1cc(=O)oc2cc(NC(=O)C(C)NC(=O)C(N)CCCCN)ccc12 (stereo not drawn) [Lys-Ala-AMC 12, Lys-Ala-AMC] (H-Lys-Ala-{AMC}; configuration not given here) . Could you help?
Return: 189

Enquiry: Hello, I am looking for reported Km with UniProtKB Q12884 for NC(Cc1ccccc1)C(=O)N1CCCC1C(=O)Nc1ccc2c(C(F)(F)F)cc(=O)oc2c1 (stereo not drawn) [Phe-Pro-AFC 10, Phe-Pro-AFC] (H-Phe-Pro-{AFC}; configuration not given here) . Could you help?
Return: 245

Enquiry: Hello, I am looking for reported Km with UniProtKB Q12884 for CC[C@H](C)[C@H](N)C(=O)N1CCC[C@H]1C(=O)Nc1ccc2c(C(F)(F)F)cc(=O)oc2c1 [Ile-Pro-AFC 13, Ile-Pro-AFC] (H-Ile-Pro-{AFC}) . Could you help?
Return: 106
